Values were extracted from ChEMBL document CHEMBL1129312.

- Protocol notes: Plasma elimination half life was determined for the compound
- Format: ADME, cell-free
Measured property: half-life
The number alone won't do; follow it with the unit.

// query Which half-life value is on record for `CC(C)(C)OC(=O)N[C@@H](Cc1ccccc1)[C@H](O)CNC[C@@H](O)[C@H](Cc1ccccc1)NC(=O)OC(C)(C)C` ?
// result 4 h

====

Measured IC50 by item
- Assay target: UniProtKB Q72874
- Protocol notes: Inhibitory activity against HIV-1 protease cleavage of [V-S-Q-N-(beta-naphthylalanine)-P-I-V)
The response must be a number in nM with no trailing unit.

CC(C)(C)OC(=O)N[C@@H](Cc1ccccc1)[C@H](O)CNC[C@@H](O)[C@H](Cc1ccc(OCC(=O)O)cc1)NC(=O)OC(C)(C)C; 150
CC(C)(C)OC(=O)N[C@@H](Cc1ccccc1)[C@H](O)CNC[C@@H](O)[C@H](Cc1ccc(OCC(=O)N2CCCCC2)cc1)NC(=O)OC(C)(C)C; 90
CC(C)(C)OC(=O)N[C@@H](Cc1ccccc1)[C@H](O)CNC[C@@H](O)[C@H](Cc1ccc(OCc2ccccc2)cc1)NC(=O)OC(C)(C)C; 300
CN1CCN(CCOc2ccc(C[C@H](NC(=O)OC(C)(C)C)[C@H](O)CNC[C@@H](O)[C@H](Cc3ccccc3)NC(=O)OC(C)(C)C)cc2)C1=O; 60
CC(C)(C)OC(=O)N[C@@H](Cc1ccccc1)[C@H](O)CNC[C@@H](O)[C@H](Cc1ccc(OCCO)cc1)NC(=O)OC(C)(C)C; 64

// query Could you tell me which IC50 is on file for `CC(C)(C)OC(=O)N[C@@H](Cc1ccccc1)[C@H](O)CNC[C@@H](O)[C@H](Cc1ccc(OCCCc2nc3ccccc3o2)cc1)NC(=O)OC(C)(C)C` ?
// result 280
